pIC50: −log10 of the molar value.
// values below are pIC50; system is MAGL (Homo sapiens, UniProt Q99685)
Sequence (Q99685 whole entry, species assumed): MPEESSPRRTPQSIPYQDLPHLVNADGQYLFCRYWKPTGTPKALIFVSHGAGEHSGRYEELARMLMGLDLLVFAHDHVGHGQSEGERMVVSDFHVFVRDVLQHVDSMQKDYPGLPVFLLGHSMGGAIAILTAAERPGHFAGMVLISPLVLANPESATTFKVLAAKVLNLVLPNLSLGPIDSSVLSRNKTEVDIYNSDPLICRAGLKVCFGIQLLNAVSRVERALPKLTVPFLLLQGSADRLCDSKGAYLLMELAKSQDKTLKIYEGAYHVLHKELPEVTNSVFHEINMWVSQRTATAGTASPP
value_kind: pIC50

Please review the following examples before continuing.
>>> print(df.to_string())
                                   compound                  experimental_system  value_kind  measured
0  O=C(N1CC(OCc2ccc(F)cc2Cl)C1)N1CC2(CC(n3cnc(C4CC4)c3)C2)C1 [Example 109]  MAGL (Homo sapiens, UniProt Q99685)       pIC50      7.20
1  O=C(N1CC2(CC(Cc3ccc(F)c(F)c3)C2)C1)N1CC2(CC(n3cnc(C4CC4)n3)C2)C1 [Example 50]  MAGL (Homo sapiens, UniProt Q99685)       pIC50      9.52
2  NC(=O)C1CC(F)(F)CCN1c1ccc(C2CN(C(=O)N3CC4(CC(n5cnc(C6CC6)n5)C4)C3)C2)cc1 (stereo not shown) [Example 503]  MAGL (Homo sapiens, UniProt Q99685)       pIC50      8.82

[A] N#Cc1cc(CC2CC3(C2)CN(C(=O)N2CC4(CC(n5cnc(C6(O)CC6)n5)C4)C2)C3)cc(C(F)(F)F)c1 [Example 370]
[B] O=C(N1CC2(CC(n3cnc(C4CC4)n3)C2)C1)N1CC2(CN(Cc3cnc(C(F)(F)F)cn3)C2)C1 [Example 473]
In: From the items above, decide which of A and B has the lower pIC50 reading. # respond with the chosen item's label
Out: B
(B: 7.94, A: 9.05)

// provenance: patent US20240199587A1
